# assay.text: Cell viability and cytotoxicity (MTT assay)
# Format: cell-based, human
# measurement.context: human, WI-38 human lung fibroblast cells; WI-38 cells; 31.25 µg/mL
I'd appreciate it if you could supply viability at 31.25 µg/mL values for the items below.
One number for each entry, in %.

>>> numeric_readout("CC1(C)CC(=O)CC2(C1)N=C(N)Nc1nc(C(=O)Nc3ccc(S(N)(=O)=O)cc3)nn12 (stereo not drawn) [Compound 2]")
99.9
>>> numeric_readout("NC1=NC2(c3ccccc3Cc3ccccc32)n2nc(C(=O)Nc3ccc(S(N)(=O)=O)cc3)nc2N1 [Compound 3]")
99.8

Give the value of viability at 31.25 µg/mL reported for the following: NC1=NC2(CCCCCC2)n2nc(C(=O)Nc3ccc(S(N)(=O)=O)cc3)nc2N1 [Compound 1] 99.9

###

# Test system: IL-1α
# assay.text: Serum IL-1α (ELISA) in carrageenan-injected rats
# Format: in vivo, rat
# measurement.context: compounds 200 mg/kg i.p., indomethacin 10 mg/kg, mean ± SD
Marks after values point to notes of the source that are not given here.
Would you mind telling me the reported IL-1α of each entry?

// batch mode: one IL-1α value per listed entry
1. CC1(C)CC(=O)CC2(C1)N=C(N)Nc1nc(C(=O)Nc3ccc(S(N)(=O)=O)cc3)nn12 (stereo not shown) [Compound 2]
2. NC1=NC2(CCCCCC2)n2nc(C(=O)Nc3ccc(S(N)(=O)=O)cc3)nc2N1 [Compound 1]
3. NC1=NC2(c3ccccc3Cc3ccccc32)n2nc(C(=O)Nc3ccc(S(N)(=O)=O)cc3)nc2N1 [Compound 3]

1: 62.82 ± 0.94 ^b pg/mL; 2: 56.97 ± 0.79 ^b pg/mL; 3: 40.66 ± 0.43 ^b pg/mL

Identify IL-1α associated with the compound COc1ccc2c(c1)c(CC(=O)O)c(C)n2C(=O)c1ccc(Cl)cc1 [indomethacin, reference compound] 79.28 ± 0.55 ^b pg/mL

###

Could you please report measured IC50 for the items listed next?
# assay.text: Cell viability and cytotoxicity (MTT assay)
# Format: cell-based, human
# measurement.context: human, WI-38 human lung fibroblast cells; WI-38 cells; 31.25 to 1000 µg/mL
Numbers only, in µg/mL.

>>> numeric_readout("CC1(C)CC(=O)CC2(C1)N=C(N)Nc1nc(C(=O)Nc3ccc(S(N)(=O)=O)cc3)nn12 (stereo not drawn)")
328

Below is a list of compounds. For each, state its recorded IC50.
1. NC1=NC2(CCCCCC2)n2nc(C(=O)Nc3ccc(S(N)(=O)=O)cc3)nc2N1
2. NC1=NC2(c3ccccc3Cc3ccccc32)n2nc(C(=O)Nc3ccc(S(N)(=O)=O)cc3)nc2N1

[363, 148]

###

Field: COX-2 inhibition % (mean activity). Provide a value for each of the compounds that follow.
# Tested on: COX-2
# assay.text: In vitro colorimetric COX (ovine) inhibitor-screening assay, COX-2
# Type: biochemical
# measurement.context: ovine COX-2, tested at 50, 100 and 150 µg/mL
One number for each entry, in %.

>>> numeric_readout("NC1=NC2(CCCCCC2)n2nc(C(=O)Nc3ccc(S(N)(=O)=O)cc3)nc2N1")
98
>>> numeric_readout("CC1(C)CC(=O)CC2(C1)N=C(N)Nc1nc(C(=O)Nc3ccc(S(N)(=O)=O)cc3)nn12 (stereo not shown)")
98
>>> numeric_readout("NC1=NC2(c3ccccc3Cc3ccccc32)n2nc(C(=O)Nc3ccc(S(N)(=O)=O)cc3)nc2N1")
99

Quote COX-2 inhibition % (mean activity) reported for COc1ccc2c(c1)c(CC(=O)O)c(C)n2C(=O)c1ccc(Cl)cc1 [indomethacin, reference compound] please. 97
